Tested on: Escherichia coli K-12 BW25113
Experiment: relative growth (OD600 normalised to plate interquartile mean) (fraction); higher = less growth inhibition, active = 0.2 or less
Settings: 50 µM; LB; incubation time: overnight (16-24 h)
Hit rate of the full screen: of about 39,000 compounds, about 220 (0.56%) showed activity. What follows is part of a selection rich in actives, with near analogues and random picks from the rest.
Possible outcomes: active, inactive

• CN[C@@H]1[C@@H](O)[C@@H](O[C@@H]2[C@@H](O)[C@H](O[C@H]3O[C@H](CN)CC[C@H]3N)[C@@H](N)C[C@H]2N)OC[C@]1(C)O.CN[C@@H]1[C@@H](O)[C@@H](O[C@@H]2[C@@H](O)[C@H](O[C@H]3O[C@H]([C@@H](C)N)CC[C@H]3N)[C@@H](N)C[C@H]2N)OC[C@]1(C)O.CN[C@@H]1[C@@H](O)[C@@H](O[C@@H]2[C@@H](O)[C@H](O[C@H]3O[C@H]([C@@H](C)NC)CC[C@H]3N)[C@@H](N)C[C@H]2N)OC[C@]1(C)O = inactive
• Cc1nc(-c2ccc(-c3ccc(C(=O)N4CCc5cc6c(cc54)C4(CCN(C)CC4)CO6)cc3)c(C)c2)no1 = inactive
• COc1cc2c(cc1OC)C13CCN4CC5=CCOC6CC(=O)N2C1C6C5CC43 (stereo not drawn) = inactive
• O=C(Cc1ccccc1)c1ccccc1 = inactive
• CN1[C@@H]2CC[C@H]1C[C@H](O)C2 = inactive
• CCC(=O)CCCCC[C@@H]1NC(=O)[C@H]2CCCCN2C(=O)[C@H]([C@@H](C)CC)NC(=O)[C@H](Cc2cn(OC)c3ccccc23)NC1=O = inactive
• OCCN(CCO)CCO = inactive
• CC(C)(O)/C=C/C(=O)[C@](C)(O)[C@H]1[C@H](O)C[C@@]2(C)[C@H]3CC=C4[C@@H](CC(=O)C(=O)C4(C)C)[C@]3(C)C(=O)C[C@]12C = inactive
• Oc1cc(Cl)ccc1Oc1ccc(Cl)cc1Cl = active
• CN(C)C(=O)[C@]1(Cc2ccccc2CN=[N+]=[N-])N=C(c2ccc(OCCCO)cc2)O[C@@H]1c1ccccc1N=[N+]=[N-] = inactive
• CC(=O)OC1CCC2(C)C(CCC3C2CCC2(C)C(C4=CC(=O)OC4)C(OC(C)=O)CC32O)C1 (stereo not drawn) = inactive
• NNc1ccn([C@H]2O[C@@H](CO)[C@@H](O)[C@@H]2O)c(=O)n1 = inactive
• CN[C@@H]1[C@@H](O)[C@@H](O[C@@H]2[C@H](O)[C@@H](O[C@H]3O[C@H]([C@@H](C)O)[C@@H](O)[C@H](O)[C@H]3N)[C@H](N)C[C@@H]2N)OC[C@]1(C)O = inactive
• CC12CCC3c4ccc(OC(=O)N(CCCl)CCCl)cc4CCC3C1CCC2O (stereo not drawn) = inactive
• CCn1cc(C(=O)[O-])c(=O)c2cc3c(cc21)OCO3.[K+] = active
• O=C1CCCC2C3CCCN4CCCC(CN12)C34 (stereo not drawn) = inactive
• CCOP(=S)(OCC)Oc1nc(Cl)c(Cl)cc1Cl = inactive
• C=C1[C@@H](C)[C@H]2[C@H](Cc3ccccc3)NC(=O)[C@]23[C@H](OC(C)=O)/C=C/[C@](C)(O)C(=O)[C@@H](C)C/C=C/[C@H]3[C@@H]1O = inactive
• CN1CCOC[C@]2(CCCNC2)C1 = inactive
• COP(=S)(OC)Oc1cc(Cl)c(Cl)cc1Cl = active
• CC(C)C12OC1C1OC13C1(C)CCC4=C(COC4=O)C1CC1OC13C2O (stereo not drawn) = inactive
• CCCCCCCCCCCCCCCC[n+]1ccccc1 = active
• CCCCCCCCCCCCCCCC[n+]1ccccc1.[Cl-] = active
• Nc1ccc(Cl)cc1Cl = inactive
• CCCCCCCCCC(=O)O[C@@H]1[C@@H](C)[C@]2(O)[C@@H](C=C(CO)C[C@]3(O)C(=O)C(C)=C[C@@H]23)[C@@H]2C(C)(C)[C@@]12OC(=O)CCCCCCCCC = inactive
• CCCCCCCCCCCCCC(=O)O[C@@H]1[C@@H](C)[C@@]2(O)[C@@H](C=C(CO)C[C@]3(O)C(=O)C(C)=C[C@@H]23)[C@@H]2C(C)(C)[C@]12OC(C)=O = inactive
• N#Cc1cccnc1 = inactive
• CNC(=O)Oc1cccc2ccccc12 = inactive
• CC1OC(OC2CCC3(C=O)C4CCC5(C)C(C6=CC(=O)OC6)CCC5(O)C4CCC3(O)C2)C(O)C(O)C1O (stereo not drawn) = inactive
• O=C1[O][SbH]23[O]C(=O)[C@H]([O]2)[C@H]2[O][SbH]4([O]C(=O)[C@H]([O]4)[C@H]1[O]3)[O]C2=O = inactive
• CO[C@H]1[C@@H](O)C[C@@H](O[C@H]2[C@@H](O)C[C@@H](O[C@H]3[C@@H](O)C[C@@H](O[C@H]4CC[C@@]5(C)[C@@H](CC[C@H]6[C@@H]5C[C@@H](O)[C@@]5(C)[C@H](C7=CC(=O)OC7)CC[C@@]65O)C4)O[C@@H]3C)O[C@@H]2C)O[C@@H]1C = inactive
• COP(=S)(OC)Oc1ccc(Sc2ccc(OP(=S)(OC)OC)cc2)cc1 = inactive
• Oc1ccc(Cl)cc1Cc1cc(Cl)ccc1O = inactive

* * *

Tested on: Escherichia coli K-12 BW25113
Test: relative growth (OD600 normalised to plate interquartile mean) (fraction); higher = less growth inhibition, active = 0.2 or less
Conditions: 50 µM; LB; incubation time: overnight (16-24 h)
Hit rate of the full screen: of about 39,000 compounds, about 220 (0.56%) showed activity. Shown is part of a subset that was picked to be rich in actives.
Classes used: 1 (active), -1 (inactive)

* CC(=O)OC1CC2(C)C(c3ccoc3)CC3OC32C2(C)C(=O)C(O)=C3C(C)(C)C(=O)C=CC3(C)C12 (centres undefined) | -1
* O=C1N[C@@H]2C(=C[C@H](O)[C@@H](O)[C@H]2O)c2cc3c(c(O)c21)OCO3 | -1
* CC[C@@H](C)NC=C1C(=O)NC(=O)NC1=O | -1
* CN1C(=O)[C@@]23C[C@]4([C@@]56C[C@]78SS[C@](CO)(C(=O)N7[C@@H]5Nc5ccccc56)N(C)C8=O)c5ccccc5N[C@H]4N2C(=O)[C@@]1(CO)SS3 | -1
* CN1C(=O)[C@]23CC4=CC=C[C@H](O)[C@H]4N2C(=O)[C@@]1(CO)SS3 | 1
* Cc1c(N)nc([C@H](CC(N)=O)NC[C@@H](N)C(N)=O)nc1C(=O)N[C@H](C(=O)N[C@@H](C)[C@H](O)[C@@H](C)C(=O)N[C@@H](C(=O)NCCc1nc(-c2nc(C(=O)NCCC[S+](C)C)cs2)cs1)[C@@H](C)O)[C@@H](O[C@H]1O[C@H](CO)[C@H](O)[C@@H](O)[C@H]1O[C@H]1O[C@H](CO)[C@@H](O)[C@H](OC(N)=O)[C@@H]1O)c1c[nH]cn1 | 1
* CNc1ccc2oc(C[C@H]3O[C@@]4(CC[C@H]3C)O[C@H]([C@H](C)C(=O)c3ccc[nH]3)[C@H](C)C[C@H]4C)nc2c1C(=O)O | -1
* CCC(N)C(O)c1ccc(O)c(O)c1.Cl (centres undefined) | -1
* NC(=O)c1ccc(N)nc1 | -1
* Cc1nn[nH]n1 | -1
* Cc1ccc(OC(=O)N(C)C[C@H]2OCc3ccccc3-c3c(n(C)c4ccccc34)C(=O)N([C@H](C)CO)C[C@@H]2C)cc1 | -1
* CC1=C[C@H]2O[C@@H]3[C@H](O)[C@@H](O[C@H]4O[C@H](CO)[C@@H](O)[C@H](O)[C@H]4O)[C@](C)([C@@]2(CO)CC1)[C@]31CO1 | -1
* CN1[C@@H]2CC[C@@H]1C[C@H](O)C2 (some centres undefined) | -1
* COc1ccc(C(CN(C)C)C2(O)CCCCC2)cc1.Cl (centres undefined) | -1

* * *

Listed next: entries and their corresponding relative growth.
Tested on: Escherichia coli K-12 BW25113;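 also: Wild-type cells incubated without shaking, value is the mean of two biological replicates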
Experiment: relative growth (OD600 normalised to plate interquartile mean) (fraction); higher = less growth inhibition, active = 0.2 or less
Conditions: 50 µM; LB; incubation time: overnight (16-24 h)
Out of some 39,000 compounds screened, about 220 (0.56%) showed activity. The list comes from a sample in which actives are over-represented; it also holds close analogues and randomly drawn compounds.
READOUT NAME: relative growth

• CN1CC(=O)N(c2cccnc2)C[C@]12CCNC2 = 0.998
• C[C@@H]1O[C@@H](O[C@H]2CC[C@]3(C=O)[C@H]4CC[C@]5(C)[C@@H](C6=CC(=O)OC6)CC[C@]5(O)[C@@H]4CC[C@]3(O)C2)[C@H](O)[C@H](O)[C@H]1O = 1
• CC1OC(OC2C=C3CCC4C(CCC5(C)C(c6ccc(=O)oc6)CCC45O)C3(C)CC2)C(O)C(O)C1O (centres undefined) = 0.977
• C[C@@H](N)Cc1ccc(O)cc1 = 0.992
• CN(C)[C@@H]1C(=O)C(C(N)=O)=C(O)[C@@]2(O)C(O)=C3C(=O)c4c(O)cccc4[C@](C)(O)[C@H]3C[C@@H]12 = 0.0416
• CCCCCCCCCCCCCCCC[N+](C)(C)C.[Br-] = 0.0522
• CC(=O)O[C@H]1C[C@H](O[C@H]2[C@@H](O)C[C@H](O[C@H]3[C@@H](O)C[C@H](O[C@H]4CC[C@@]5(C)[C@@H](CC[C@H]6[C@@H]5C[C@@H](O)[C@]5(C)[C@@H](C7=CC(=O)OC7)CC[C@]65O)C4)O[C@@H]3C)O[C@@H]2C)O[C@H](C)[C@H]1O[C@@H]1O[C@H](CO)[C@@H](O)[C@H](O)[C@H]1O = 0.986
• CO[C@@H]1C=C[C@@H]2[C@H]1N2CCO (some centres undefined) = 0.968
• [NH2][Pt]1([NH2])[O]C(=O)C2(CCC2)C(=O)[O]1 = 0.958
